These data points were gathered from paper PMC3514216.

- test system: T1, GST-Shb SH2 domain (human, UniProt Q15464 410-504)
- T1 construct: SH2 domain of Shb; source: E. coli BL21, purified (glutathione sepharose, NAP-10)
- T1 sequence (Q15464 410-504): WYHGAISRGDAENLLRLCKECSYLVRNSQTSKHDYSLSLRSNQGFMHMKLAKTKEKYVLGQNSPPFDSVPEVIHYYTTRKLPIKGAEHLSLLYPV
- method description: fluorescence polarisation; Rhodamine B-labelled peptide in solution with SH2 domain; Beacon 2000; as previously described [40]
- run conditions: both partners purified
pKd: −log10 of the molar value. Non-standard residues stand in square brackets, D forms with d. No end group written: not given here. pY = N[C@@H](Cc1ccc(OP(=O)(O)O)cc1)C(=O)O
quantity kind: pKd

>  <binder>
STDE[pY]LDLSAP (also: Rhodamine B label, site not given here, FGFR3 around Y760; source: synthetic peptide (FMOC chemistry), purified by LC/MS) [FGFR3 (Y760) phosphopeptide STDEpYLDLSAP, Rhodamine B-labelled]

>  <quantity kind>
pKd

>  <measured>
< 4.30

$$$$
